# PROTOCOL SUMMARY: gradient 5% acetonitrile 3 min, to 50% in 2 min, to 85% in 15 min, held 3 min, 100 µL/min
# PARTICULARS: column: Zorbax Extend-C18 2.1 x 50 mm; eluents: water / acetonitrile, 0.1% formic acid
Labelling field: enter 1 if recorded RP-LC retention time is less than 800 s. Enter -1 if it equals or exceeds that cut-off.

compound="COc1ccccc1NC(=O)C1CCN(S(C)(=O)=O)c2ccccc2O1 (centres undefined)" assigned_label=-1
compound=Cc1ccc(N2CCN(Cc3nc(-c4ccc(N5CCCC5)nc4)no3)CC2)cc1 assigned_label=1
compound=CCCNC(=O)c1ccc(-c2ccnc(N3CCCCC3)n2)cc1 assigned_label=-1
compound=CC(=O)Nc1ccc(C(=O)NCc2ccc(C)o2)c(N2CCOCC2)c1 assigned_label=1
compound=CCn1nc(-c2csc(S(=O)(=O)N3CCC(C)CC3)c2)ccc1=O assigned_label=-1
compound="CC(C)CCNC(=O)c1cc2n(n1)CC(C)(C(=O)NCc1ccccc1)N(C)C2=O (centres undefined)" assigned_label=1
compound=COCCCNC(=O)Cn1nc(C)c2sc(-c3ccccc3)nc2c1=O assigned_label=1
compound=Cc1csc(NC(=O)CSc2ccc(-c3cccnc3)nn2)n1 assigned_label=1
compound=COc1ccc(OC)c(NC(=O)c2cc3c(n(-c4ccc(F)cc4)c2=O)CCCC3=O)c1 assigned_label=-1
compound=CCNC(=O)c1[nH]c2ccc(C)cc2c1N1CCCC1=O assigned_label=1
compound="CCn1cc(C(=O)N2CCC3(CCC3O)CC2)cn1 (centres undefined)" assigned_label=1
compound="O=C(NC1CCCCC1)C1CCCN(c2nc3ccsc3c(=O)n2Cc2ccc(F)cc2)C1 (centres undefined)" assigned_label=-1
compound="CN(C)C(CNC(=O)c1cc(=O)c2cc(Cl)ccc2o1)c1ccccc1 (centres undefined)" assigned_label=1

----------
# PROTOCOL SUMMARY: gradient 5% acetonitrile 3 min, to 50% in 2 min, to 85% in 15 min, held 3 min, 100 µL/min
# PARTICULARS: column: Zorbax Extend-C18 2.1 x 50 mm; eluents: water / acetonitrile, 0.1% formic acid
MEASUREMENT KIND: RP-LC retention time (s)

compound=COc1ccc(-c2cn3c(CC(=O)NCc4ccccc4)csc3n2)cc1OC unit_of_measurement=s value_observed=693
compound=O=C(NCCn1c(-c2ccc(F)cc2)nc2cccnc21)c1ccc2c(c1)OCO2 unit_of_measurement=s value_observed=697
compound="Cn1nc(N2CCC(NC(=O)CCC3CCCC3)C2)ccc1=O (stereo not given)" unit_of_measurement=s value_observed=716
compound=Cc1ccc(NC(=O)N2CC(c3nc(C(C)C)nn3C)C2)cc1C unit_of_measurement=s value_observed=710
compound=Cn1c(C2CCN(C(=O)Nc3ccc(Br)cc3F)CC2)cc(=O)n2nccc12 unit_of_measurement=s value_observed=694

----------
Each entry below carries its reported RP-LC retention time.
# PROTOCOL SUMMARY: gradient 5% acetonitrile 3 min, to 50% in 2 min, to 85% in 15 min, held 3 min, 100 µL/min
# PARTICULARS: column: Zorbax Extend-C18 2.1 x 50 mm; eluents: water / acetonitrile, 0.1% formic acid
MEASUREMENT KIND: RP-LC retention time (s)

compound=COc1ccc(Cl)cc1S(=O)(=O)N1CCC(C(=O)Nc2ccccc2)CC1 measurement_kind="RP-LC retention time" value_observed=913
compound="O=C(Cc1ccccc1F)N1CCC(c2nc(-c3ccccc3)no2)C1 (stereo not drawn)" measurement_kind="RP-LC retention time" value_observed=922
compound=Cc1nn(S(=O)(=O)N(C)C)c(C)c1Br measurement_kind="RP-LC retention time" value_observed=881
